The values you see were collected from patent US7300946B2.

tested on: tobacco budworm (Heliothis virescens [Fabricius]); test: surface-treated diet test against the tobacco budworm; assay type: in vivo; conditions: tobacco budworm second instar larvae; surface-treated diet; 0.25 millimoles of candidate insecticide on the surface of the diet; five-day exposure; compared to total number of insects infested
Below, each entry is listed alongside its reported Percent Mortality.
readout name: Percent Mortality

> print(dat)
                                   compound  result
1  FC(F)(F)c1ccc(C(Oc2ccc(C(F)(F)F)cn2)C2CCN(Cc3ccc(Oc4ccccn4)cc3)CC2)cc1 (stereo not shown)    100%
2  O=C(Nc1ccc(CN2CCC(=C(c3ccc(C(F)(F)F)cc3)c3ccc(C(F)(F)F)cc3)CC2)cc1)C(F)(F)F      0%
3  CC(C)C(=O)Nc1ccc(CN2CCC(C(OC(=O)Nc3cc(F)cc(F)c3)c3ccc(C(F)(F)F)cc3)CC2)cc1 (stereo not shown)    100%
4  O=C(Nc1cc(F)cc(F)c1)OC(c1ccc(OC(F)(F)F)cc1)C1CCN(Cc2ccc(I)cc2)CC1 (stereo not shown)     83%
5  CCON=Cc1ccc(CN2CCC(C(OC(=O)Nc3ccc(Cl)cc3)c3ccc(OC(F)(F)F)cc3)CC2)cc1 (stereo not shown)    100%
6  CCn1nnc(-c2ccc(CN3CCC(C(OC(=O)Nc4cc(Cl)cc(Cl)c4)c4ccc(C(F)(F)F)cc4)CC3)cc2)n1 (stereo not shown)    100%
7  CN(C(=O)OC(c1ccc(Cl)cc1)C1CCN(Cc2ccc(Oc3ccccn3)cc2)CC1)c1ccc(C(F)(F)F)cc1 (stereo not shown)    100%

* * *

Test system: tobacco budworm (Heliothis virescens [Fabricius])
Assay: surface-treated diet test against the tobacco budworm
Format: in vivo
Conditions: tobacco budworm second instar larvae; surface-treated diet; 0.25 millimoles of candidate insecticide on the surface of the diet; five-day exposure; compared to total number of insects infested
Protocol: Candidate insecticides were evaluated for activity against the tobacco budworm (Heliothis virescens [Fabricius]) in a surface-treated diet test. […] After the five-day exposure period insecticidal activity for each rate of application of candidate insecticide was assessed as percent inhibition of insect weight relative to the weight of insects from untreated controls, and percent mortality when compared to the total number of insects infested. […]
readout name: Percent Mortality (%)

> print(dat)
                                   molecule  numeric.result
1  Nc1ccc(CN2CCC(C(OC(=O)Nc3cc(F)cc(F)c3)c3ccc(C(F)(F)F)cc3)CC2)cc1 (stereo not shown)              17
2  CCON=Cc1ccc(CN2CCC(C(OC(=O)Nc3ccc(Cl)cc3C(F)(F)F)c3ccc(C(F)(F)F)cc3)CC2)cc1 (stereo not shown)             100
3  FC(F)(F)c1ccc(C(OC(=S)Nc2ccc(Cl)cc2)C2CCN(Cc3ccc(Oc4ccccn4)cc3)CC2)cc1 (stereo not shown)             100
4  Cn1nnc(-c2ccc(CN3CCC(C(NC(=O)c4ccc(Cl)cc4)c4ccc(OC(F)(F)F)cc4)CC3)cc2)n1 (stereo not shown)              83
5  CCn1nnc(-c2ccc(CN3CCC(C(OC(=O)Nc4ccc(Cl)cc4)c4cc(F)cc(F)c4)CC3)cc2)n1 (stereo not shown)             100
6  CCn1nnc(-c2ccc(CN3CCC(C(OC(=O)Nc4ccc(C(F)(F)F)cc4)c4cc(Cl)cc(Cl)c4)CC3)cc2)n1 (stereo not shown)             100
7  Cn1nnc(-c2ccc(CN3CCC(C(OC(=O)Nc4ccc(F)cc4)c4ccc(OC(F)(F)F)cc4)CC3)cc2)n1 (stereo not shown)             100
